- PROTOCOL: Phase 1 study in subjects with hepatic impairment: pharmacokinetics and protein binding
- Format: in vivo, humans
- Design: concentration or dose not given beside the values
- CONDITION PARAMETERS: human, plasma, Day 5; severe hepatic impairment; read-out: AUC0-t (Test Group)
PROPERTY: AUC(0-t) (ng·h/mL)

SMILES TEXT	MEASUREMENT UNITS	ASSAY VALUE
CC[C@H]1OC(=O)[C@@](C)(F)C(=O)[C@H](C)[C@@H](O[C@@H]2O[C@H](C)C[C@H](N(C)C)[C@H]2O)[C@](C)(OC)C[C@@H](C)C(=O)[C@H](C)[C@H]2N(CCCCn3cc(-c4cccc(N)c4)nn3)C(=O)O[C@]12C	ng·h/mL	8310
